Target: T1, P2-AA-12HAA-L
T1 chain: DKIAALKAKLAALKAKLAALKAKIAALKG
Assay: two-hybrid library CCmax;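 also: natural log of median RNA to DNA barcode read ratio; higher means stronger binding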
Conditions: mean of both orientations
attribute-measured: interaction score

Solved entries:
Query: interaction score; subject: DEIAALEAEEAALEAEEAALEAEIAALEG [P1-AA-12HAA-E]
1.82

Query: interaction score; subject: DEIAALEAEAAALEAEAAALEAEIAALEG [P1-AA-12HAA-A]
1.84

Query: interaction score; subject: DEIAALEAEYAALEAEYAALEAEIAALEG [P1-AA-12HAA-Y]
2.1

Query: interaction score; subject: DEIAALEAEDAALEAEDAALEAEIAALEG [P1-AA-12HAA-D]
-1.19

1: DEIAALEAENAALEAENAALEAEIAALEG [P1-AA]
2: DEIAALEAERAALEAERAALEAEIAALEG [P1-AA-12HAA-R]
Which numeric interaction score is bigger, that of 1 or that of 2 ? In your reply, give the label of the chosen option.
2
(2: 1.95, 1: 0.342)
